Target: T1, apelin receptor (AGTRL1) on CHO-K1 cells (UniProt P35414 1-380, limits assumed)
T1 sequence (looked up): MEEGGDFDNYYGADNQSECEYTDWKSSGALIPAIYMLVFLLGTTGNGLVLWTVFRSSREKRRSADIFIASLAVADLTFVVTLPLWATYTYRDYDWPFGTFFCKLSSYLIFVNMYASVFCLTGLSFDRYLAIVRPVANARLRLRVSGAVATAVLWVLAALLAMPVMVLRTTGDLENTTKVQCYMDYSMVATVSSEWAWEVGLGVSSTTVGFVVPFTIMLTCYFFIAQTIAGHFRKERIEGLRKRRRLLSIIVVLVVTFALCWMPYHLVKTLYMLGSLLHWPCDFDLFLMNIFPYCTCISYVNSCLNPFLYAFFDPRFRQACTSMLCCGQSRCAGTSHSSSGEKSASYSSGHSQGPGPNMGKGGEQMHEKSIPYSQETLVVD
Assay: cell-based or functional assay
readout type: beta-Arrestin EC50 (nM) Exp. 1
Quick note: give the figure in nM, leave out the unit.

Prompt: Fill in: beta-Arrestin EC50 (nM) Exp. 1 of ELA-J (Fc fusion) DKTHTSPPSPAPEAAGGPSVFLFPPKPKDTLMISRTPEVTCVVVDVSHEDPEVKFNWYVDGVEVHNAKTKPREEQYNSTYRVVSVLTVLHQDWLNGKEYKCKVSNKALPAPIEKTISKAKGQPREPQVYTLPPSREEMTKNQVNLTCLVKGFYPSDIAVEWESNGQPENNYKTTPPVLDSDGSFFLNSTLTVDKSRWQQGNVFSCSVMHEALHNHYTQKSLSLSPGKGGGGSGGGGSGGGGSKLRKHNCLQERCMPLHSRVPFP is ___
Completion: 73.7

Prompt: Note, next up: ELA-K (Fc fusion) DKTHTSPPSPAPEAAGGPSVFLFPPKPKDTLMISRTPEVTCVVVDVSHEDPEVKFNWYVDGVEVHNAKTKPREEQYNSTYRVVSVLTVLHQDWLNGKEYKCKVSNKALPAPIEKTISKAKGQPREPQVYTLPPSREEMTKNQVNLTCLVKGFYPSDIAVEWESNGQPENNYKTTPPVLDSDGSFFLNSTLTVDKSRWQQGNVFSCSVMHEALHNHYTQKSLSLSPGKGGGGSGGGGSGGGGSKLRKHNCLIRRCMPLHSRVPFP
Completion: 3.45

Prompt: Please do the same for ELA-G (Fc fusion) DKTHTSPPSPAPEAAGGPSVFLFPPKPKDTLMISRTPEVTCVVVDVSHEDPEVKFNWYVDGVEVHNAKTKPREEQYNSTYRVVSVLTVLHQDWLNGKEYKCKVSNKALPAPIEKTISKAKGQPREPQVYTLPPSREEMTKNQVNLTCLVKGFYPSDIAVEWESNGQPENNYKTTPPVLDSDGSFFLNSTLTVDKSRWQQGNVFSCSVMHEALHNHYTQKSLSLSPGKGGGGSGGGGSGGGGSKLRKHNCLQRRCMPLHSYVPFP as well.
Completion: 89.1

Reference source: patent US20240383958A1
